// provenance: ChEMBL document CHEMBL3734741

The following compounds are listed with their measured Ratio CC50/IC50 values.
- experimental-protocol: Selectivity index, ratio of CC50 for African green monkey Vero cells to IC50 Mycobacterium tuberculosis InhA
- Assay type: functional
Output: the number by itself.

* CC1=C(C(=O)Nc2ccc(Br)cn2)C(c2cn(-c3ccccc3)nc2-c2ccc([N+](=O)[O-])cc2)n2ncnc2N1 (stereo not given) | 89.28
* CC1=C(C(=O)Nc2ccc(Br)cn2)C(c2cn(-c3ccccc3)nc2-c2ccccc2)n2ncnc2N1 (stereo not given) | 29.41
* CC1=C(C(=O)Nc2ccc(Br)cn2)C(c2cn(-c3ccccc3)nc2-c2ccc(Cl)cc2)n2ncnc2N1 (stereo not given) | 181.81
* CC1=C(C(=O)Nc2ccc(Br)cn2)C(c2cn(-c3ccccc3)nc2-c2ccc(F)cc2)n2ncnc2N1 (stereo not given) | 181.81

Next compound, please.
## Task Query: Ratio CC50/IC50; subject: CC1=C(C(=O)Nc2ccccn2)C(c2cn(-c3ccccc3)nc2-c2ccc(F)cc2)n2ncnc2N1 (stereo not given)
## Result 125
